observable: melting point

CC=Cc1c(C(C)C)nc(C(C)C)c(CO)c1-c1ccc(F)cc1 :: 46 to 47 °C
CN1C(=O)CCC(C(=O)O)C1c1ccc2c(c1)OCO2 (centres undefined) :: 231 to 232 °C

Q: Report melting point for `COc1ccn(-c2nc(C)c(C(=O)NCc3cccnc3)s2)c(=O)c1` please.
A: 200 to 202 °C

Q: Report melting point for `Cc1c(C#N)cc(C(C)(C)C)c(O)c1C(=O)Nc1ccc(Sc2ccc(Cl)cc2)cc1C(F)(F)F` please.
A: 193 to 195 °C

Q: Report melting point for `CS(=O)(=O)c1ccc(C2=C(c3ccc4c(c3)OCO4)CCC2)cc1` please.
A: 140 to 141 °C

Q: Report melting point for `O=C(O)CCCN1CCN(Cc2ccc3c(c2)-c2[nH]nc(-c4ccsc4)c2C3)CC1` please.
A: 195 to 198 °C

Q: Report melting point for `FC(F)(F)c1ccc2c(c1)ncn2-c1cccc(-n2ccnc2)c1` please.
A: 177 to 180 °C

Q: Report melting point for `CC(C)COc1ccc(NC(=O)c2cnn(-c3ccc(F)cc3)c2O)cc1C#N` please.
A: 207 to 208 °C

Q: Report melting point for `COc1cc(C(C)=O)ccc1OCCCN1CCN(n2ncc3ccc(F)cc32)CC1` please.
A: 135 to 137 °C

Q: Report melting point for `CCc1ccc(OCCc2c[nH]cn2)cc1` please.
A: 178 °C

Q: Report melting point for `CN1C(=O)c2ccccc2N(N=O)c2ccccc21` please.
A: 95 to 98 °C

Q: Report melting point for COc1ccc(C(C)C(=O)O)cc1[N+](=O)[O-] (centres undefined) please.
A: 89 to 90 °C

Q: Report melting point for COC(C)c1ccc(O)cc1 (single isomer, unassigned; (+)) please.
A: 114 to 115 °C

Q: Report melting point for `COC(=O)c1nc(-c2ccc(Cl)cc2F)nc(N)c1Cl` please.
A: 194 to 196 °C

Q: Report melting point for `COc1ccccc1-n1c(-c2sc(Nc3ccc(Cl)cc3)nc2C)nc2ccccc2c1=O` please.
A: 225 to 226 °C

Q: Report melting point for `O=c1oc2ccccc2c(O)c1CCCCC1CCCCC1` please.
A: 160 to 161 °C

Q: Report melting point for Cc1cc(C2=NNC(=O)SC2C)cc2c1NC(=O)C2(C)C (centres undefined) please.
A: 260 °C

Q: Report melting point for `O=C(Nc1ccc(-n2nc(C(F)(F)F)cc2C(F)(F)F)cc1)c1ccncc1[N+](=O)[O-]` please.
A: 207 to 209 °C

Q: Report melting point for O=C(O)CNC(=O)c1c(Cl)cc(N2C(=O)N3CCCC3(Cc3ccc(Br)cc3)C2=O)cc1Cl (centres undefined) please.
A: 157 to 158 °C
